- EXPERIMENTAL SYSTEM: Epidermal growth factor receptor (Homo sapiens, UniProt P00533)
- Sequence (P00533 whole entry): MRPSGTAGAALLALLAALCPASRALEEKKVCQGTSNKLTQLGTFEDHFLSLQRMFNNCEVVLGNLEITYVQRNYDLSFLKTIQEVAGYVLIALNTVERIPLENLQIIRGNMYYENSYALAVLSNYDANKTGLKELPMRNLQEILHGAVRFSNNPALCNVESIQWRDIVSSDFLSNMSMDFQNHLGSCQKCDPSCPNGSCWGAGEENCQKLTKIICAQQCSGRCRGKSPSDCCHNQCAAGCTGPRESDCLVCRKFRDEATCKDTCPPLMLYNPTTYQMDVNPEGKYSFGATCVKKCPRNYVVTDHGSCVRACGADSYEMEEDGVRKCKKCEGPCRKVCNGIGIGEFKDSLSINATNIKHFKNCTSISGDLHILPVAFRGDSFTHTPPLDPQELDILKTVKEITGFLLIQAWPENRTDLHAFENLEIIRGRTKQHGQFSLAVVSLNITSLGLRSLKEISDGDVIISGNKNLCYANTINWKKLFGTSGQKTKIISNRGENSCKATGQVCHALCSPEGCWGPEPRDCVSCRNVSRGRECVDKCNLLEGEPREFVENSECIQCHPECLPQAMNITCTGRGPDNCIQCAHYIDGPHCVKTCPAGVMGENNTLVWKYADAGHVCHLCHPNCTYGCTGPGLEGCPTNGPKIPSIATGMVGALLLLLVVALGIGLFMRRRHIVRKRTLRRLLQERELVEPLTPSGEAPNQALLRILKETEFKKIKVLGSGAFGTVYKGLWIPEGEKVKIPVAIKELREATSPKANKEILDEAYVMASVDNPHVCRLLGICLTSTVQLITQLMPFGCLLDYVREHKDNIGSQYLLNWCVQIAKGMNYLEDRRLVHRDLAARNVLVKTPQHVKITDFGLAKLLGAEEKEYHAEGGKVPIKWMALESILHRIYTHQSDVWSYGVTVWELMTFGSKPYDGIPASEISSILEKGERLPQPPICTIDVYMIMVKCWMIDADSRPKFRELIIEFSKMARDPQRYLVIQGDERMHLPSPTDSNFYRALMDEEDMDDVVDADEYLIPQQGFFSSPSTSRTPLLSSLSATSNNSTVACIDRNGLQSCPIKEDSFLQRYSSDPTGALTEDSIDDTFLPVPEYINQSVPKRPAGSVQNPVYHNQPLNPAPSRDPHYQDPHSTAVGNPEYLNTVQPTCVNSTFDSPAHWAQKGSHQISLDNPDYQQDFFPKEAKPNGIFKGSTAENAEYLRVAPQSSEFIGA
- TEST DETAILS: Inhibition of EGF-induced Tyrosine phosphorylation in A431 cells expressing EGF-R
ASSAY ENDPOINT: IC50 (nM)
# number only, unit nM dropped from output

Exam item: What value of measured IC50 is listed for C[C@H](Nc1[nH]cnc2c3ccccc3nc1-2)c1ccccc1 ?
Marked response: 50

====

- Species on record: Homo sapiens
- TEST DETAILS: Direct inhibition of the IgE-Germ line promoter (IGE-GLP-RGA) activity which is responsible in synthesis of IgE in human splenocytes
- Type: functional
ASSAY ENDPOINT: IC50 (µM)
# unit: µM | format: bare number

mol=C[C@H](Nc1ncnc2ccccc12)c1ccc2ccccc2c1 readout_number=0.014
mol=CSc1nccc(N[C@@H](C)c2ccccc2)n1 readout_number=0.931
mol=Cc1csc2ncnc(N[C@@H](C)c3ccccc3)c12 readout_number=0.13
mol=C[C@H](Nc1ncnc2sccc12)c1ccccc1 readout_number=0.37
mol=Cc1ccc([C@H](C)Nc2ncnc3ccccc23)cc1 readout_number=0.046

Exam item: Which value of IC50 has been reported for c1ccc2c(c1)CC[C@H]2Nc1ncnc2ccccc12 in the records?
Marked response: 1.02

Exam item: Also C[C@H](Nc1ncnc2ccccc12)c1ccccc1 , if possible.
Marked response: 0.127

Exam item: Please do the same for COc1ccc([C@H](C)Nc2ncnc3ccccc23)cc1 as well.
Marked response: 0.045

Exam item: Here is the next molecule: COc1cccc([C@H](C)Nc2ncnc3ccccc23)c1
Marked response: 0.023

Exam item: What would you report for C[C@H](Nc1ccnc2ccccc12)c1ccccc1 ?
Marked response: 0.701
